OD450: recorded values
Biological target: BSA (UniProt P02769)
Sequence (P02769 25-607 limits assumed): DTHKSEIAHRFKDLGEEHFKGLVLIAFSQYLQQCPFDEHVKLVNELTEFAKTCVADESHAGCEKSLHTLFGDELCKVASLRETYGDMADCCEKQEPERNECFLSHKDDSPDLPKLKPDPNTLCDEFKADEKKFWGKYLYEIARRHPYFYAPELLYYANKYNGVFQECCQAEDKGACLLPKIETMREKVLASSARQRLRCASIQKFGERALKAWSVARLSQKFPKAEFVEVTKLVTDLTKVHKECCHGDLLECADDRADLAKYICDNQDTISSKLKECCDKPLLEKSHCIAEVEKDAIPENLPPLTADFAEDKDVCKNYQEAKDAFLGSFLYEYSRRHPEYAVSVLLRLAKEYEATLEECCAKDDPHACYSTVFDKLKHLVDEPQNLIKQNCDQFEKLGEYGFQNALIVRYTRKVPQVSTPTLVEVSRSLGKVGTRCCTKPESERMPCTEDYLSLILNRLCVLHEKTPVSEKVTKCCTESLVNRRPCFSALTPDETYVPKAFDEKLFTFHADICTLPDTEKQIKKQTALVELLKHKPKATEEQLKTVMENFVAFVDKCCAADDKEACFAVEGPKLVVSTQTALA
Assay: scFv ELISA
Just the number in OD450, nothing appended.

Fill blank: measured OD450 of the binder PcOxP_DB02_C11 (scFv, V domains shown, scFv in periplasmic extract) VH: EVQLLESGGGLVQPGGSLRLSCAASGFTSSDFYMEWVRQAPGKGLEWVAASRNKANDYYTEYADSVKGRFTISRDNSKNTLYLQMNSLRAEDTAVYYCARDYYGSSYWYFDVWGQGTLVTVSS VL: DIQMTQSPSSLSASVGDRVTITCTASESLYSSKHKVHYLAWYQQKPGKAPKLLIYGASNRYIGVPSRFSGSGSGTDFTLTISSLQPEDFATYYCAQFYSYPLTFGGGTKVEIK is ____. 0.1

Would you mind doing PcOxP_DB02_A05 (scFv, V domains shown, scFv in periplasmic extract) VH: EVQLLESGGGLVQPGGSLRLSCAASGFTGSDFYMEWVRQAPGKGLEWVAASRNKWNDYTTEYADSVKGRFTISRDNSKNTLYLQMNSLRAEDTAVYYCARDYYGSSYWYFDVWGQGTLVTVSS VL: DIVMTQSPDSLAVSLGERATINCTASESLYSSKHKVHYLAWYQQKPGQPPKLLIYGAGNRYIGVPDRFSGSGSGTDFTLTISSLQAEDVAVYYCAQFYSYPLTFGGGTKVEIK as well? 0.07

One more binder: PcOxP_DB04_F03 (scFv, V domains shown, scFv in periplasmic extract) VH: EVQLLESGGGLVQPGGSLRLSCAASGFTASDFYMEWVRQAPGKGLEWVAASRWKANDYTTEYADSVKGRFTISRDNSKNTLYLQMNSLRAEDTAVYYCARDIYGSSYWYFDVWGQGTLVTVSS VL: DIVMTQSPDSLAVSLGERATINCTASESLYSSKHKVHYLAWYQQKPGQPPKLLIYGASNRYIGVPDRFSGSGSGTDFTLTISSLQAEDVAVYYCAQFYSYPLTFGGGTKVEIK 0.1

Okay, and PcOxP_DB03_H10 (scFv, V domains shown, scFv in periplasmic extract) VH: EVQLLESGGGLVQPGGSLRLSCAASGFTFDDFYMEWVRQAPGKGLEWVAASRNEANDYTTEYADSVKGRFTISRDNSKNTLYLQMNSLRAEDTAVYYCARDYYGSSYWYFDVWGQGTLVTVSS VL: DIVMTQSPDSLAVSLGERATINCTASESLYSSKHKVHYLAWYQQKPGQPPKLLIYGAGNRYIGVPDRFSGSGSGTDFTLTISSLQAEDVAVYYCAQFYHYPLTFGGGTKVEIK ? 0.05

Another: PcOxP_DB01_A04 (scFv, V domains shown, scFv in periplasmic extract) VH: EVQLLESGGGLVQPGGSLRLSCAASGFTHSDFYMEWVRQAPGKGLEWVAASRNKANDYTTEYADSVKGRFTISRDNSKNTLYLQMNSLRAEDTAVYYCARDYYGSSYWYFDVWGQGTLVTVSS VL: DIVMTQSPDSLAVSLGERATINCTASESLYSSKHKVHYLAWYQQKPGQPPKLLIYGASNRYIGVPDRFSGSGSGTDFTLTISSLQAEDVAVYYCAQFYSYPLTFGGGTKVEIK 0.07
